- Measured Target: CDK6 (Homo sapiens)
- Construct: endogenous in cells
- Sequence (Q00534 whole entry): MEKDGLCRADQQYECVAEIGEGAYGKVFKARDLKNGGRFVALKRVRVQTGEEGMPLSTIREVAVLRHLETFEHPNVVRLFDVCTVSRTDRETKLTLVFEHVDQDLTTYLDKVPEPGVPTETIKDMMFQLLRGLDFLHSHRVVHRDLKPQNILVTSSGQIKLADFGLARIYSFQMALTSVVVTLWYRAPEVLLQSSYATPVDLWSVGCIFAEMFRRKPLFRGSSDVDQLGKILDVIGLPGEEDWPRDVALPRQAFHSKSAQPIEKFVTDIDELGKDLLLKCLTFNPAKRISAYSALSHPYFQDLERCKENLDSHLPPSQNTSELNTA
- Test Protocol: CDK6 degradation (DC50, Dmax)
- Type: cell-based
Measured Attribute: Dmax

Sample answers from the record:
CC(=O)c1c(C)c2cnc(Nc3ccc(N4CCN(C(=O)N5CCC(CCC6CCN(c7ccc8c(c7)CN(C7CCC(=O)NC7=O)C8=O)CC6)CC5)CC4)cn3)nc2n(C2CCCC2)c1=O (centres unmarked) = > 50%
Cc1nc2c(F)cc(-c3nc(Nc4ccc(CC5CCN(C6CCN(c7ccc8c(c7)CN(C7CCC(=O)NC7=O)C8=O)CC6)CC5)cn4)ncc3F)cc2n1C(C)C (centres unmarked) = > 60%
Cc1nc2c(F)cc(-c3nc(Nc4ccc(CN5CCN(C(=O)C6CCN(c7ccc(NC8CCC(=O)NC8=O)cc7)CC6)CC5)cn4)ncc3F)cc2n1C(C)C (centres unmarked) = > 80%
CC(=O)c1c(C)c2cnc(Nc3ccc(C4CCN(C(=O)C5CN(c6ccc(C(=O)NC7CCC(=O)NC7=O)cc6)C5)CC4)cn3)nc2n(C2CCCC2)c1=O (centres unmarked) = > 60%
CC(=O)c1c(C)c2cnc(Nc3ccc(N4CCN(C(=O)N5CCN(CC6CCN(c7ccc8c(c7)CN(C7CCC(=O)NC7=O)C8=O)CC6)CC5)CC4)cn3)nc2n(C2CCCC2)c1=O (centres unmarked) = > 50%
Cc1nc2c(F)cc(-c3nc(Nc4ccc(CC5CCN(CC6CCN(c7ccc(C(=O)NC8CCC(=O)NC8=O)cc7)CC6)CC5)cn4)ncc3F)cc2n1C(C)C (centres unmarked) = > 80%
CC(=O)c1c(C)c2cnc(Nc3ccc(N4CCN(C5CCN(C(=O)Nc6ccc7c(c6)CN(C6CCC(=O)NC6=O)C7=O)CC5)CC4)cn3)nc2n(C2CCCC2)c1=O (centres unmarked) = > 80%
CC(=O)c1c(C)c2cnc(Nc3ccc(N4CCN(C5CCN(c6ccc7c(c6)C(=O)N(C6CCC(=O)NC6=O)C7=O)CC5)CC4)cn3)nc2n(C2CCCC2)c1=O (centres unmarked) = > 80%
CC(=O)c1c(C)c2cnc(Nc3ccc(N4CCN(C(=O)N5CCC(C6CCN(c7ccc8c(c7)CN(C7CCC(=O)NC7=O)C8=O)CC6)CC5)CC4)cn3)nc2n(C2CCCC2)c1=O (centres unmarked) = > 50%
Cc1nc2c(F)cc(-c3nc(Nc4ccc(CC5CCN(C(=O)C6CCN(c7ccc(NC8CCC(=O)NC8=O)cc7)CC6)CC5)cn4)ncc3F)cc2n1C(C)C (centres unmarked) = > 80%

Continue with the next compound.
Using the record for CC(=O)c1c(C)c2cnc(Nc3ccc(N4CCN(C(=O)N5CCN(CCC6CCN(c7ccc8c(c7)CN(C7CCC(=O)NC7=O)C8=O)CC6)CC5)CC4)cn3)nc2n(C2CCCC2)c1=O (centres unmarked) , state its measured Dmax. > 50%

---

Reported DC50 values follow for various compounds
- Measured Target: CDK4 (Homo sapiens)
- Construct: endogenous in cells
- Sequence (P11802 whole entry): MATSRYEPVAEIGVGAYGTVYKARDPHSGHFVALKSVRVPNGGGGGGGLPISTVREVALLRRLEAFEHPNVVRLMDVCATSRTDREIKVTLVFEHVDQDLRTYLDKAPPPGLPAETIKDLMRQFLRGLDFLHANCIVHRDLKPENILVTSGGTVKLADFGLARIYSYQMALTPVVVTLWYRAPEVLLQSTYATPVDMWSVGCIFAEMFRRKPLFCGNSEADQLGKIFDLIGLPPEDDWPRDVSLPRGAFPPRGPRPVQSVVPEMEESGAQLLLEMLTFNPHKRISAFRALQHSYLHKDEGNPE
- Test Protocol: CDK4 degradation (DC50, Dmax)
- Assay type: cell-based

Sample answers from the record:
CC(=O)c1c(C)c2cnc(Nc3ccc(N4CCN(CCC5CCN(C(=O)Nc6ccc7c(c6)C(=O)N(C6CCC(=O)NC6=O)C7=O)CC5)CC4)cn3)nc2n(C2CCCC2)c1=O (centres unmarked) = 50 to 200 nM
Cc1nc2c(F)cc(-c3nc(Nc4ccc(CN5CCN(C(=O)C6CCN(c7ccc(NC8CCC(=O)NC8=O)cc7)CC6)CC5)cn4)ncc3F)cc2n1C(C)C (centres unmarked) = 50 to 200 nM
CC(=O)c1c(C)c2cnc(Nc3ccc(N4CCN(CCCNc5cc6c(cc5F)C(=O)N(C5CCC(=O)NC5=O)C6)CC4)cn3)nc2n(C2CCCC2)c1=O (centres unmarked) = 50 to 200 nM

Using the record for CC(=O)c1c(C)c2cnc(Nc3ccc(N4CCN(C5CCN(c6ccc7c(c6)CN(C6CCC(=O)NC6=O)C7=O)CC5)CC4)cn3)nc2n(C2CCCC2)c1=O (centres unmarked) , state its measured DC50. 50 to 200 nM

Using the record for Cc1nc2c(F)cc(-c3nc(Nc4ccc(CC5CCN(CC6CCN(c7ccc(C(=O)NC8CCC(=O)NC8=O)cc7)CC6)CC5)cn4)ncc3F)cc2n1C(C)C (centres unmarked) , state its measured DC50. < 50 nM

Using the record for Cc1nc2c(F)cc(-c3nc(Nc4ccc(CN5CCN(CC6CN(c7ccc(N8CCC(=O)NC8=O)cc7)C6)CC5)cn4)ncc3F)cc2n1C(C)C , state its measured DC50. < 50 nM

Using the record for CC(=O)c1c(C)c2cnc(Nc3ccc(N4CCN(CCN5CCN(C(=O)Nc6ccc7c(c6)C(=O)N(C6CCC(=O)NC6=O)C7=O)CC5)CC4)cn3)nc2n(C2CCCC2)c1=O (centres unmarked) , state its measured DC50. 50 to 200 nM

Using the record for Cc1nc2c(F)cc(-c3nc(Nc4ccc(CN5CCN(C6CN(c7ccc8c(c7)C(=O)N(C7CCC(=O)NC7=O)C8=O)C6)CC5)cn4)ncc3F)cc2n1C(C)C (centres unmarked) , state its measured DC50. < 50 nM
